Hey, just so you know, these numbers are from PubChem BioAssay.

Reported inhibition values are given for each entry in this list.
Experiment: blockers of RIG-like receptor reporter activation – cell-based, Sendai virus stimulus, luciferase, 10K MLSCN set, TLR/RLR signaling modifier project, primary screen (AID 602276);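 also: firefly luciferase from ISG56 promoter only with Renilla not read in this screen; 0% = Sendai virus plus DMSO and 100% = medium plus DMSO without virus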
Conditions: HEK293 RL24 IRF3 luciferase reporter, at 10 µM, hits give high values
Experimental Readout: inhibition (%)

1. CN(C)c1nc(N)nc(-c2nc3ccccc3s2)n1; -26
2. COc1ccccc1OCCSc1nc2ccccc2c(=O)[nH]1; -4.62
3. Cn1c(=O)c2c(nc(-n3ccnc3)n2C)n(C)c1=O; 15.7

* * *

Assay: TLR3 IRF3 reporter activation blockers – cell-based, poly I:C stimulus, luciferase, 10K MLSCN set, primary screen (AID 602277)
Conditions: HEK293-TLR3 RL24 IRF3 luciferase reporter, at 10 µM, hits give high values
Short version: inhibition at least 20% is true, less is false.

1. CCOc1ccc2nc(NC(=O)C3CCCN(S(=O)(=O)c4c(C)noc4C)C3)sc2c1 (centres undefined); false
2. COc1ccc2cc(C(=O)NCc3ccco3)c(=Nc3ccc(C(=O)O)cc3)oc2c1; false
3. COc1ccc(Oc2c(C)oc3cc(OC(=O)N4CCOCC4)ccc3c2=O)cc1; false
4. O=S(NCc1ccco1)C12CC3CC(CC(C3)C1)C2 (centres undefined); false
5. CC(=O)N1CCN(S(=O)(=O)c2cccc(C(=O)Nc3ccc4c(c3)CCC4)c2)CC1; false
6. CCC(C)NC(=O)c1ccccc1NC(=O)C(C)N(c1ccccc1)S(C)(=O)=O (centres undefined); true
7. O=C(NCC12CC3CC(C1)CC(CNC(=O)N1CCCC1)(C3)C2)N1CCCC1; true
8. CC1Cc2nc(SCC(=O)Nc3ccccc3F)n(C)c(=O)c2S1 (centres undefined); false
9. CCCC(CCC)C(=O)NCCN1CCOCC1; true
10. O=C1c2ccccc2C(Nc2ccc(F)c(Cl)c2)N1Cc1ccco1 (centres undefined); true
11. Cc1ccc(-c2nnc3c4ccccc4c(C)nn23)cc1NC(=O)c1ccco1; false
12. Cc1cnc(NC(=O)CSc2nnc(COc3c(C)cccc3C)o2)s1; true
13. CCOc1ccc(CNC(=O)C2CCCN(S(C)(=O)=O)C2)cc1OC (centres undefined); false
14. COc1ccc(S(=O)(=O)N2CCN(CC(=O)Nc3ccc(C)c(F)c3)CC2)cc1; true
15. COc1ccc(-c2nc(CSCC(=O)N3CCN(c4cccc(C)c4)C(C)C3)c(C)o2)cc1OC (centres undefined); false
16. O=C1c2ccccc2C(=O)N1CCCCN1CCN(CCCCN2C(=O)c3ccccc3C2=O)CC1; false
17. O=C(c1ccc(Cl)c(F)c1F)N1CCCC1; false
18. CCN(CCNC(=O)C1CCN(S(C)(=O)=O)CC1)c1ccccc1; true
19. CC1(C)CC(=O)C(C=Nc2ccc3c(c2)OCO3)=C(O)C1; false
20. CC1=C(C(=O)OC2CCCCC2)C(c2ccc(C)o2)C2=C(CC(C)(C)CC2=O)N1 (centres undefined); true
21. O=C(c1ccccc1)N1CCN(Cc2ccccc2Br)CC1; false
22. COCCNC(=O)C(c1ccncc1)N(C(=O)Cn1nnc2ccccc21)c1ccc(OC)cc1 (centres undefined); true
23. COc1ccccc1N1CCN(C(=O)c2cc(C3CC3)on2)CC1; true
24. COc1ccc(C2C(C#N)=C(N)Oc3cc4c(cc32)OCO4)cc1 (centres undefined); true
25. COc1cc(CN2CCN(C(=O)CC(C)C)CC2)cc(OC)c1O; false
26. Cc1sc(NC(=O)CSc2nc(N)n(CC(=O)c3ccccc3)n2)c(C#N)c1C; false
27. O=C(Nc1ncnc2sc3c(c12)CCC3)c1ccco1; false
28. Cc1ccc(-c2cc(C(=O)Nc3cc(C)on3)c3ccccc3n2)c(C)c1; true
29. CCn1c(=O)c2cc(S(=O)(=O)NCc3ccccc3)ccc2n(CC)c1=O; false
30. Cc1ccc(S(=O)(=O)NCC(=O)N(CC(=O)NCc2ccccc2)CC2CCCO2)cc1 (centres undefined); false
